So I've got a bunch of compounds here, and I need their IC50 values.
system: HCT116 WT cells; assay: HCT116 proliferation assay, WT cells (CellTiter-Glo, 6 days); format: cell-based; conditions: Homo sapiens, HCT-116, 144 h, read-out: Prolif_HCT116-WT IC50
Please give a number only; it is taken to be in µM.

Prompt line: For the record Cc1cc2cc(C(=O)N(Cc3ccc(C(F)(F)F)cn3)[C@@H](C)c3ncccc3F)ccc2nc1N [Example 386] , what value of IC50 is listed for HCT116 WT cells?
Response line: 3.83

Prompt line: Param readout= IC50; system= HCT116 WT cells; entry= Cc1cc2cc(C(=O)N(Cc3ccc(C(F)(F)F)cn3)Cc3c(F)cccc3F)ccc2nc1N [Example 344] ; returns value.
Response line: 1.8

Prompt line: What is its IC50 for HCT116 WT cells? Entry: Cc1cc2cc(C(=O)N(Cc3ccc4c(c3)NC(=O)CO4)Cc3ccccc3F)ccc2nc1N [Example 569]
Response line: 7.16

Prompt line: Form entry - test system: HCT116 WT cells; read-out: IC50; compound: Cc1cc2cc(C(=O)N(Cc3ccc(C(F)(F)F)cn3)Cc3ncccc3Cl)ccc2nc1N [Example 303]
Response line: 0.6

Prompt line: Write down the reported IC50 of Cc1cc2cc(C(=O)N(Cc3ccc(C(F)(F)F)nn3)[C@H](C)c3ncccc3Cl)ccc2nc1N (single isomer, unassigned) [Example 525] , test system: HCT116 WT cells.
Response line: 7.61

Prompt line: # query: IC50 | item Cc1cc2cc(C(=O)N(Cc3ccc(C(F)(F)F)cn3)[C@H](C)c3ncccc3F)ccc2nc1N [Example 385] | system: HCT116 WT cells
Response line: 1.31

Prompt line: Quick check: IC50 on HCT116 WT cells, item Cc1cc2cc(C(=O)N(Cc3ccc(C(F)(F)F)cn3)Cc3cnc(N)s3)ccc2nc1N [Example 305] ?
Response line: 8.77

Prompt line: Record lookup: for HCT116 WT cells, what IC50 belongs to Cc1cc2cc(C(=O)N(Cc3ccc(C(F)(F)F)cn3)CC(C)C)c(Cl)cc2nc1N [Example 436] ?
Response line: 3.72

Prompt line: Form field: IC50 recorded for Cc1cc2cc(C(=O)N(Cc3ccc(C(F)(F)F)cn3)C3CC(C)c4ccccc43)ccc2nc1N (stereo not drawn) [Example 595] with HCT116 WT cells (enter value)
Response line: 8.2

Prompt line: Kindly state the measured IC50 obtained for Cc1cc2cc(C(=O)N(Cc3ncc(C(F)(F)F)cc3F)[C@H](C)c3ncccc3F)ccc2nc1N [Example 391] with HCT116 WT cells.
Response line: 4.8

Prompt line: Tell me reported IC50 for Cc1cc2cc(C(=O)N(Cc3ccc(C(F)(F)F)cn3)[C@@H]3CCCc4cccnc43)ccc2nc1N [Example 390] , tested with HCT116 WT cells.
Response line: 0.46

###

Test system: HCT116 WT cells
Assay: HCT116 proliferation assay, WT cells (CellTiter-Glo, 6 days)
Type: cell-based
Conditions: Homo sapiens, HCT-116, 144 h, read-out: Prolif_HCT116-WT IC50
Method: HCT116 MTAP null and WT cells were seeded in 96-well tissue culture plates in RPMI 1640 media + 10% fetal bovine serum. Plates were incubated overnight at 37° C. and 5% CO2. […] Effects on cell viability were measured with the CellTiter-Glo® Luminescent Cell Viability Assay (Promega) per manufacturer’s recommendation. Assay plates were read on an EnVision™ Multilabel Reader using the Ultra-Sensitive luminescence module.
measured property: IC50 (µM)
Write the number in µM without appending the unit.

Prompt line: Entry under review: COC(CN(Cc1ccc(C(F)(F)F)cn1)C(=O)c1ccc2nc(N)c(C)cc2c1)C(C)C (stereo not shown) . Reported IC50?
Response line: 3.9

Prompt line: GET /values?readout=IC50&item= Cc1cc2cc(C(=O)N(Cc3ccc(C(F)(F)F)cn3)Cc3ncccc3F)cnc2nc1N
Response line: 5.96

Prompt line: Using the record for Cc1cc2cc(C(=O)N(Cc3ccc(C(F)(F)F)cn3)Cc3ccc4cc[nH]c4n3)ccc2nc1N , report its IC50.
Response line: 3.5

Prompt line: May I ask what IC50 has been recorded for Cc1cc2cc(C(=O)N(Cc3ccc(C(F)(F)F)cn3)[C@H](C)c3ccc(F)cn3)ccc2nc1N (single isomer, unassigned) ?
Response line: 2.33
